The values you see were collected from paper PMC10569036.

Reported log partition n-hexane / HPLC water, unbuffered, traces of methanol / DMSO values for the following compounds.
- Protocol text: shake flask on a mixture of 185; loss from the water phase only; LC-QTOF peak areas
- Conditions used: room
Reported endpoint: log partition n-hexane / HPLC water, unbuffered, traces of methanol / DMSO (log10)

{"Compound": "O=S(=O)(O)C(F)(F)F", "Obs value": -0.8208}
{"Compound": "Cc1oncc1C(=O)Nc1ccc(C(F)(F)F)cc1", "Obs value": 0.07872}
{"Compound": "CO/N=C(/C1=NOCCO1)c1ccccc1Oc1ncnc(Oc2ccccc2Cl)c1F", "Obs value": 1.734}
{"Compound": "CN(C1CCCCC1)S(=O)(=O)c1ccccc1N", "Obs value": -0.5682}
{"Compound": "c1coc(-c2nc3ccccc3[nH]2)c1", "Obs value": -1.048}
{"Compound": "CO/C=C(/C(=O)OC)c1ccccc1Oc1cc(Oc2ccccc2C#N)ncn1", "Obs value": 0.8262}
{"Compound": "CCc1ccc(C(=O)NN(C(=O)c2cc(C)cc(C)c2)C(C)(C)C)cc1", "Obs value": 1.035}
{"Compound": "CCCCNS(=O)(=O)c1ccc(C)cc1", "Obs value": 0.6036}
{"Compound": "O=C(c1ccccc1)c1ccc(O)cc1O", "Obs value": -0.7955}
{"Compound": "CC(C)C1(C)N=C(c2nc3ccccc3cc2C(=O)O)NC1=O (stereo not shown)", "Obs value": -0.9732}
{"Compound": "O=C(Nc1ccccc1-c1ccc(Cl)cc1)c1cccnc1Cl", "Obs value": 1.024}
{"Compound": "c1ccc2[nH]c(-c3cscn3)nc2c1", "Obs value": -0.9485}
{"Compound": "CCCCOC(=O)C(C)Oc1ccc(Oc2ccc(C(F)(F)F)cn2)cc1 (stereo not shown)", "Obs value": 2.824}
{"Compound": "CCC(C)(CC)c1cc(NC(=O)c2c(OC)cccc2OC)on1", "Obs value": 0.9529}
{"Compound": "CCCOC(=O)c1ccc(C(=O)OCCC)nc1", "Obs value": 2.244}
{"Compound": "Cn1cnc([N+](=O)[O-])c1Sc1ncnc2nc[nH]c12", "Obs value": -1.66}
{"Compound": "Cc1ccc([N+](=O)[O-])cc1S(=O)(=O)O", "Obs value": 0.3824}
{"Compound": "Oc1c(Cl)cc(Cl)cc1Sc1cc(Cl)cc(Cl)c1O", "Obs value": 1.101}
{"Compound": "C[C@H](CCC(=O)O)[C@H]1CC[C@H]2[C@@H]3CC[C@@H]4C[C@H](O)CC[C@]4(C)[C@H]3CC[C@]12C", "Obs value": -1.606}
{"Compound": "Nc1cc2c3c(c1)C(c1ccccc1)=N[C@@H](NC(=O)c1cccnc1)C(=O)N3CC2", "Obs value": -0.527}
{"Compound": "CCc1nn(C)c(C(=O)NCc2ccc(C(C)(C)C)cc2)c1Cl", "Obs value": 2.449}
{"Compound": "Cc1cc2c3c(c1)C(c1ccccc1)=N[C@@H](NC(=O)c1ccncc1)C(=O)N3CC2", "Obs value": -0.2402}
